test: Stability in simulated intestinal fluid; type: in vitro ADME; conditions: 2 μM, 37° C., pH 7.5
Readout kind: half-life (t1/2) in simulated intestinal fluid

- Compound: "CCc1cc(OC)ccc1-c1ccc(CC(NC(=O)[C@H](CC(=O)O)NC(=O)[C@H](CO)NC(=O)[C@@H](NC(=O)C(C)(Cc2ccccc2F)NC(=O)[C@@H](NC(=O)CNC(=O)[C@H](CCC(N)=O)NC(=O)[C@H](CO)NC(=O)[C@@H](N)Cc2c[nH]cn2)[C@@H](C)O)[C@@H](C)O)C(=O)NC(Cc2ccc(-c3ccccc3C)cc2)C(N)=O)cc1 (single isomer, unassigned)"
  Result: "(6) h"
- Compound: "CCc1cc(OC)ccc1-c1ccc(CC(NC(=O)[C@H](CC(=O)O)NC(=O)[C@H](CO)NC(=O)[C@@H](NC(=O)C(C)(Cc2ccccc2F)NC(=O)[C@@H](NC(=O)CNC(=O)[C@H](CCC(N)=O)NC(=O)[C@H](C)NC(=O)[C@@H](N)Cc2c[nH]cn2)[C@@H](C)O)[C@@H](C)O)C(=O)NC(Cc2ccc(-c3ccccc3C)cc2)C(N)=O)cc1 (single isomer, unassigned)"
  Result: "(6) h"
- Compound: "CCc1cc(OC)ccc1-c1ccc(CC(NC(=O)[C@H](CC(=O)O)NC(=O)[C@H](CO)NC(=O)[C@@H](NC(=O)C(C)(Cc2ccccc2F)NC(=O)[C@@H](NC(=O)CNC(=O)[C@H](CCC(N)=O)NC(=O)[C@H](C)NC(=O)[C@@H](N)Cc2c[nH]cn2)[C@@H](C)O)[C@@H](C)O)C(=O)NC(Cc2ccc(-c3ccccc3F)cc2)C(N)=O)cc1 (single isomer, unassigned)"
  Result: "(6) h"
